test system: A549; assay: Cytotoxicity assay (MTT), A549 cell line; type: cell-based; settings: 12.5 μM, 24 h
Class MET: Percentage of inhibition of cell growth at least 1%. Class NOT MET: Percentage of inhibition of cell growth below 1%.

These solved cases illustrate the format of a correct answer.
CC[C@H]1OC(=O)[C@H](C)[C@@H](O[C@H]2C[C@@](C)(OC)[C@@H](OC(=O)CCN3CCN(CCCN4CCCCC4)CC3)[C@H](C)O2)[C@H](C)[C@@H](O[C@@H]2O[C@H](C)C[C@H](N(C)C)[C@H]2O)[C@](C)(OC)C[C@@H](C)C(=O)N[C@H](C)[C@@H](O)[C@]1(C)O	MET
CC[C@H]1OC(=O)[C@H](C)[C@@H](O[C@H]2C[C@@](C)(OC)[C@@H](OC(=O)CCN(CC)CC)[C@H](C)O2)[C@H](C)[C@@H](O[C@@H]2O[C@H](C)C[C@H](N(C)C)[C@H]2O)[C@](C)(OC)C[C@@H](C)NC(=O)[C@H](C)[C@@H](O)[C@]1(C)O	NOT MET
CC[C@H]1OC(=O)[C@H](C)[C@@H](O[C@H]2C[C@@](C)(OC)[C@@H](O)[C@H](C)O2)[C@H](C)[C@@H](O[C@@H]2O[C@H](C)C[C@H](N(C)C)[C@H]2O)[C@](C)(O)C[C@@H](C)CN(C)[C@H](C)[C@@H](O)[C@]1(C)O [azithromycin, reference compound]	NOT MET

Request: Reported Percentage of inhibition of cell growth at or above 1%? CC[C@H]1OC(=O)[C@H](C)[C@@H](O[C@H]2C[C@@](C)(OC)[C@@H](OC(=O)CCN(CC)CC)[C@H](C)O2)[C@H](C)[C@@H](O[C@@H]2O[C@H](C)C[C@H](N(C)C)[C@H]2O)[C@](C)(O)C[C@@H](C)CN(C)[C@H](C)[C@H]2OC(=O)O[C@@]21C
Response: NOT MET

Request: Threshold query (Percentage of inhibition of cell growth >= 1%) on CC[C@H]1OC(=O)[C@H](C)[C@@H](O[C@H]2C[C@@](C)(OC)[C@@H](OC(=O)CCN(CC)CC)[C@H](C)O2)[C@H](C)[C@@H](O[C@@H]2O[C@H](C)C[C@H](N(C)C)[C@H]2O)[C@](C)(O)C[C@@H](C)NC(=O)[C@H](C)[C@@H](O)[C@]1(C)O
Response: NOT MET

Request: Quick check, Percentage of inhibition of cell growth >= 1%? CC[C@H]1OC(=O)[C@H](C)[C@@H](O[C@H]2C[C@@](C)(OC)[C@@H](OC(=O)CCN3CCN(CCN(C)C)CC3)[C@H](C)O2)[C@H](C)[C@@H](O[C@@H]2O[C@H](C)C[C@H](N(C)C)[C@H]2O)[C@](C)(OC)C[C@@H](C)C(=O)N[C@H](C)[C@@H](O)[C@]1(C)O
Response: MET

Request: Determine whether measured Percentage of inhibition of cell growth meets or exceeds 1% for C=CC(=O)OC1[C@H](C)O[C@@H](O[C@H]2[C@H](C)[C@@H](O[C@@H]3O[C@H](C)C[C@H](NC)[C@H]3O)[C@](C)(OC)C[C@@H](C)C(=O)N[C@H](C)[C@@H](O)[C@](C)(O)[C@@H](CC)OC(=O)[C@@H]2C)C[C@@]1(C)OC (some centres unmarked)
Response: MET

Request: In plain terms: is recorded Percentage of inhibition of cell growth at least 1% for CC[C@H]1OC(=O)[C@H](C)[C@@H](O[C@H]2C[C@@](C)(OC)[C@@H](OC(=O)CCN3CCCN(CCCN4CCCC4)CC3)[C@H](C)O2)[C@H](C)[C@@H](O[C@@H]2O[C@H](C)C[C@H](N(C)C)[C@H]2O)[C@](C)(OC)C[C@@H](C)C(=O)N[C@H](C)[C@@H](O)[C@]1(C)O ?
Response: NOT MET

Request: For this compound, is measured Percentage of inhibition of cell growth 1% or higher? CC[C@H]1OC(=O)[C@H](C)[C@@H](O[C@H]2C[C@@](C)(OC)[C@@H](OC(=O)CCN(C)CCO)[C@H](C)O2)[C@H](C)[C@@H](O[C@@H]2O[C@H](C)C[C@H](N(C)C)[C@H]2O)[C@](C)(OC)C[C@@H](C)C(=O)N[C@H](C)[C@@H](O)[C@]1(C)O
Response: NOT MET

Request: Record CC[C@H]1OC(=O)[C@H](C)[C@@H](O[C@H]2C[C@@](C)(OC)[C@@H](OC(=O)CCN(C)C3CCCCC3)[C@H](C)O2)[C@H](C)[C@@H](O[C@@H]2O[C@H](C)C[C@H](N(C)C)[C@H]2O)[C@](C)(OC)C[C@@H](C)C(=O)N[C@H](C)[C@@H](O)[C@]1(C)O ; criterion: Percentage of inhibition of cell growth no lower than 1%. Met?
Response: MET

Request: Item CC[C@H]1OC(=O)[C@H](C)C(O[C@H]2C[C@@](C)(OC)[C@@H](OC(=O)CCN(CC)CC)[C@H](C)O2)[C@H](C)[C@@H](O[C@@H]2O[C@H](C)C[C@H](N(C)C)[C@H]2O)[C@](C)(OC)C[C@@H](C)C(=O)[C@H](C)[C@H](O)[C@]1(C)O (some centres unmarked) with Percentage of inhibition of cell growth of 1% or above?
Response: NOT MET

Request: Could you tell me if the measured Percentage of inhibition of cell growth of CC[C@H]1OC(=O)[C@H](C)[C@@H](O[C@H]2C[C@@](C)(OC)[C@@H](OC(=O)CCN3CCN(CCN(CC)CC)CC3)[C@H](C)O2)[C@H](C)[C@@H](O[C@@H]2O[C@H](C)C[C@H](N(C)C)[C@H]2O)[C@](C)(OC)C[C@@H](C)C(=O)N[C@H](C)[C@@H](O)[C@]1(C)O reaches 1% or more?
Response: MET

----------
I'd appreciate it if you could supply Percentage of inhibition of IL-8 production values for the items below.
test system: IL-8; test: Inhibition of IL-8 production by stimulated human peripheral blood leukocytes in vitro; format: cell-based; details: 50 μM; PMA-stimulated PBL
Write the numeric value and append its unit.

Would you please look over these solved cases?
CCC(=O)N(C)[C@H]1C[C@@H](C)O[C@@H](O[C@@H]2[C@@H](C)[C@H](O[C@H]3C[C@@](C)(OC)[C@@H](OC(=O)CCN(CC)CC)[C@H](C)O3)[C@@H](C)C(=O)O[C@H](CC)[C@@](C)(O)[C@H](O)[C@@H](C)NC(=O)[C@H](C)C[C@@]2(C)OC)[C@@H]1O [Example 63]	3%
CCC1OC(=O)C(C)C(OC2CC(C)(OC)C(OC(=O)CCN(CC)CC)C(C)O2)C(C)C(OC2OC(C)CC(N(C)C)C2O)C(C)(OC)CC(C)C(=O)NC(C)C(O)C1(C)O (stereo not shown) [Example 8]	89%
CCC1OC(=O)C(C)C(OC2CC(C)(OC)C(OCCCN3CCN(CCN(CC)CC)CC3)C(C)O2)C(C)C(OC2OC(C)CC(N(C)C)C2O)C(C)(O)CC(C)CN(C)C(C)C2OC(=O)OC12C (stereo not shown) [Example 97]	29%

The reported value for CC[C@H]1OC(=O)[C@H](C)[C@@H](O[C@H]2C[C@@](C)(OC)[C@@H](OCCCN(CC)CC)[C@H](C)O2)[C@H](C)[C@@H](O[C@@H]2O[C@H](C)C[C@H](N(C)C)[C@H]2O)[C@](C)(O)C[C@@H](C)CN(C)[C@H](C)[C@H]2OC(=O)O[C@@]21C [Example 95] in terms of Percentage of inhibition of IL-8 production is 21%

----------
system: IL-6; assay: Inhibition of IL-6 production by stimulated human peripheral blood leukocytes in vitro; format: cell-based; conditions: Homo sapiens, Leukocyte, 50 μM; LPS-stimulated PBL; read-out: Percentage of inhibition of IL-6 production
observation_type: inhibition at 50 µM (%)
Numbers only, in %.

Some solved entries appear below for comparison.
C=CC(=O)OC1[C@H](C)O[C@@H](O[C@H]2[C@H](C)[C@@H](O[C@@H]3O[C@H](C)C[C@H](NC)[C@H]3O)[C@](C)(OC)C[C@@H](C)C(=O)N[C@H](C)[C@@H](O)[C@](C)(O)[C@@H](CC)OC(=O)[C@@H]2C)C[C@@]1(C)OC (stereo partly shown) [Example 53]	99
CC[C@H]1OC(=O)[C@H](C)[C@@H](O[C@H]2C[C@@](C)(OC)[C@@H](OCCCN(CC)CC)[C@H](C)O2)[C@H](C)[C@@H](O[C@@H]2O[C@H](C)C[C@H](N(C)C)[C@H]2O)[C@](C)(O)C[C@@H](C)CN(C)[C@H](C)[C@@H](O)[C@]1(C)O [Example 96]	3
CC[C@H]1OC(=O)[C@H](C)[C@@H](O[C@H]2C[C@@](C)(OC)[C@@H](OC(=O)CCN(CC)CC)[C@H](C)O2)[C@H](C)[C@@H](O[C@@H]2O[C@H](C)C[C@H](N(C)C)[C@H]2O)[C@](C)(OC)C[C@@H](C)NC(=O)[C@H](C)[C@@H](O)[C@]1(C)O [Example 3]	78
CC[C@H]1OC(=O)[C@H](C)[C@@H](O[C@H]2C[C@@](C)(OC)[C@@H](OC(=O)CCN3CCN(CCN(C)C)CC3)[C@H](C)O2)[C@H](C)[C@@H](O[C@@H]2O[C@H](C)C[C@H](N(C)C)[C@H]2O)[C@](C)(OC)C[C@@H](C)C(=O)N[C@H](C)[C@@H](O)[C@]1(C)O [Example 17]	14
CC[C@H]1OC(=O)[C@H](C)[C@@H](O[C@H]2C[C@@](C)(OC)[C@@H](OC(=O)CCNC(C)C)[C@H](C)O2)[C@H](C)[C@@H](O[C@@H]2O[C@H](C)C[C@H](N(C)C)[C@H]2O)[C@](C)(OC)C[C@@H](C)C(=O)N[C@H](C)[C@@H](O)[C@]1(C)O [Example 23]	14

Each molecule below has a reported value. Please supply its inhibition at 50 µM.
1. CC[C@H]1OC(=O)[C@H](C)[C@@H](O[C@H]2C[C@@](C)(OC)C(OC(=O)CCN(CC)CC)[C@H](C)O2)[C@H](C)[C@@H](O[C@@H]2O[C@H](C)C[C@H](NC)[C@H]2O)[C@](C)(O)C[C@@H](C)CN(C)[C@H](C)[C@@H](O)[C@]1(C)O (stereo partly shown) [Example 90]
2. CC[C@H]1OC(=O)[C@H](C)[C@@H](O[C@H]2C[C@@](C)(OC)[C@@H](O)[C@H](C)O2)[C@H](C)[C@@H](O[C@@H]2O[C@H](C)C[C@H](N(C)C)[C@H]2O)[C@](C)(O)C[C@@H](C)CN(C)[C@H](C)[C@@H](O)[C@]1(C)O [azithromycin, reference compound]

Response:
88
40
